// provenance: ChEMBL document CHEMBL5247669

Reported values of EC50 for individual entries
Test system: U-937
protocol.notes: Anticancer activity against human U-937 cells assessed as reduction in cell viability by MTT assay
Format: functional, cell-based
reported.metric: EC50

>  <molecule>
COc1cccc(C2=C(c3cn(C)c4ccccc34)COC2=O)c1

>  <reported.metric>
EC50

>  <experimental.result>
> 10 µM

$$$$
>  <molecule>
Cc1ccc(C2=C(c3cn(C)c4ccccc34)COC2=O)cc1

>  <reported.metric>
EC50

>  <experimental.result>
> 10 µM

$$$$
>  <molecule>
COc1ccc(C2=C(c3cn(C)c4ccccc34)COC2=O)cc1OC

>  <reported.metric>
EC50

>  <experimental.result>
> 10 µM

$$$$
>  <molecule>
Cc1cccc(C2=C(c3cn(C)c4ccccc34)COC2=O)c1

>  <reported.metric>
EC50

>  <experimental.result>
> 10 µM

$$$$
>  <molecule>
Cn1cc(C2=C(c3ccccc3)C(=O)OC2)c2ccccc21

>  <reported.metric>
EC50

>  <experimental.result>
> 10 µM

$$$$
>  <molecule>
COc1ccc(OC)c(C2=C(c3cn(C)c4ccccc34)COC2=O)c1

>  <reported.metric>
EC50

>  <experimental.result>
3.2 µM

$$$$
>  <molecule>
COc1ccc(C2=C(c3cn(C)c4ccccc34)COC2=O)cc1

>  <reported.metric>
EC50

>  <experimental.result>
> 10 µM

$$$$
>  <molecule>
COc1cc(C2=C(c3cn(C)c4ccccc34)COC2=O)cc(OC)c1OC

>  <reported.metric>
EC50

>  <experimental.result>
0.6 µM

$$$$
>  <molecule>
COc1ccccc1C1=C(c2cn(C)c3ccccc23)COC1=O

>  <reported.metric>
EC50

>  <experimental.result>
> 10 µM

$$$$
